The following compounds are listed with their measured RPP values.
assay: Systemic hemodynamics during infarct experiment; type: in vivo, rabbit; conditions: Reperfusion 2 h

{"compound": "FC(F)OC(F)C(F)(F)F (stereo not shown) [DES, desflurane]", "RPP (bpm × mmHg × 10^3)": 15}
{"compound": "FC(F)OC(Cl)C(F)(F)F (stereo not shown) [ISO, isoflurane]", "RPP (bpm × mmHg × 10^3)": 13.2}
{"compound": "FCOC(C(F)(F)F)C(F)(F)F [SEVO, sevoflurane]", "RPP (bpm × mmHg × 10^3)": 14}
{"compound": "FC(F)OC(F)(F)C(F)Cl (stereo not shown) [ENF, enflurane]", "RPP (bpm × mmHg × 10^3)": 16.5}

====

Below, each entry is listed with its recorded HR.
assay: Systemic hemodynamics during infarct experiment; type: in vivo, rabbit; details: Memory

{"compound": "FC(F)OC(F)C(F)(F)F (stereo not shown)", "unit.abbreviation": "bpm", "HR": 231}
{"compound": "FC(F)OC(F)(F)C(F)Cl (stereo not shown)", "unit.abbreviation": "bpm", "HR": 231}
{"compound": "FCOC(C(F)(F)F)C(F)(F)F", "unit.abbreviation": "bpm", "HR": 227}
{"compound": "FC(F)OC(Cl)C(F)(F)F (stereo not shown)", "unit.abbreviation": "bpm", "HR": 229}

====

test: Arterial blood gas analysis; assay type: in vivo, rabbit; conditions: Reperfusion 2 h
observation.type: PaO2 (mmHg)

{"molecule": "FC(F)OC(F)C(F)(F)F (stereo not shown) [DES, desflurane]", "observation.type": "PaO2", "observed.result": 155}
{"molecule": "FC(F)OC(F)(F)C(F)Cl (stereo not shown) [ENF, enflurane]", "observation.type": "PaO2", "observed.result": 135}
{"molecule": "FC(F)OC(Cl)C(F)(F)F (stereo not shown) [ISO, isoflurane]", "observation.type": "PaO2", "observed.result": 169}

====

assay: Systemic hemodynamics during infarct experiment; type: in vivo, rabbit; settings: Infusion
We begin with a simple list: items and their reported HR.
observation.type: HR (bpm)

{"compound": "FC(F)OC(Cl)C(F)(F)F (stereo not shown)", "observed.result": 227}
{"compound": "FC(F)OC(F)(F)C(F)Cl (stereo not shown)", "observed.result": 240}
{"compound": "FCOC(C(F)(F)F)C(F)(F)F", "observed.result": 235}
{"compound": "FC(F)OC(F)C(F)(F)F (stereo not shown)", "observed.result": 253}

====

test: Arterial blood gas analysis; assay type: in vivo, rabbit; conditions: arterial blood; Baseline
Readings of pH for the listed compounds
observation.type: pH

{"compound": "FC(F)OC(Cl)C(F)(F)F (stereo not shown)", "observation.type": "pH", "observed.result": 7.43}
{"compound": "FC(F)OC(F)(F)C(F)Cl (stereo not shown)", "observation.type": "pH", "observed.result": 7.47}
{"compound": "FC(F)OC(F)C(F)(F)F (stereo not shown)", "observation.type": "pH", "observed.result": 7.45}
{"compound": "FCOC(C(F)(F)F)C(F)(F)F", "observation.type": "pH", "observed.result": 7.44}

====

# EtHalogenated per entry
Assay: End-tidal gas analysis
Type: in vivo, rabbit
Settings: end-tidal; Reperfusion 1 h
Method: Baseline measurements of systemic hemodynamics, arterial blood gas tensions, and blood concentrations of anesthetic agent were performed 30 min after instrumentation was completed. […] HVA concentrations in blood were determined by gas chromatographic (GC) analysis. […] Statistical analysis of data within and between groups was performed with analysis of variance (ANOVA) for repeated measures followed by Student-Newman-Keuls test. […] All data are expressed as mean±SEM.
observation.type: EtHalogenated

{"compound": "FC(F)OC(Cl)C(F)(F)F (stereo not shown)", "observed.result": "0.00 ± 0.00%"}
{"compound": "FC(F)OC(F)C(F)(F)F (stereo not shown)", "observed.result": "0.00 ± 0.00%"}
{"compound": "FC(F)OC(F)(F)C(F)Cl (stereo not shown)", "observed.result": "0.00 ± 0.00%"}
{"compound": "FCOC(C(F)(F)F)C(F)(F)F", "observed.result": "0.03 ± 0.01%"}
